- System: PANC-1 complex spheroid growth, percent test/control
- assay-overview: Anticancer human tumor PANC-1 cell line growth inhibition [Asc]
- protocol-conditions: second compound 0.316 µM; first compound 0.1 µM; active compounds read low
measured-parameter: viability, T/C

Query: Provide only the value of recorded viability, T/C for Cn1ncnc1[C@H]1c2n[nH]c(=O)c3cc(F)cc(c23)N[C@@H]1c1ccc(F)cc1 + Cc1c(S(C)(=O)=O)c(-c2cc(F)cc(N3CCN(c4ccc(NS(=O)(=O)c5ccc(NC(CCN6CCC(C(=O)OCCCP(=O)(O)O)CC6)CSc6ccccc6)c(S(=O)(=O)C(F)(F)F)c5)cc4)CC3)c2)c(-c2ccc(Cl)cc2)n1C(C)C
Response: 110%

Query: Provide only the value of recorded viability, T/C for O=C(c1ccc(F)c(F)c1Nc1ccc(I)cc1F)N1CC(O)([C@@H]2CCCCN2)C1 + CNC(C)C(=O)NC1CN(S(=O)(=O)c2cccc(S(=O)(=O)N3CCC4CCC(C(=O)NC(c5ccccc5)c5ccccc5)N4C(=O)C(NC(=O)C(C)NC)C3)c2)CCC2CCC(C(=O)NC(c3ccccc3)c3ccccc3)N2C1=O
Response: 89.9%

Query: Provide only the value of recorded viability, T/C for O=C(c1cc(Cc2n[nH]c(=O)c3ccccc23)ccc1F)N1CCN(C(=O)C2CC2)CC1 + CNC(C)C(=O)NC1CN(S(=O)(=O)c2cccc(S(=O)(=O)N3CCC4CCC(C(=O)NC(c5ccccc5)c5ccccc5)N4C(=O)C(NC(=O)C(C)NC)C3)c2)CCC2CCC(C(=O)NC(c3ccccc3)c3ccccc3)N2C1=O
Response: 103%

---

- Test system: PANC-1 complex spheroid growth, percent test/control
- assay-overview: Anticancer human tumor PANC-1 cell line growth inhibition [Asc];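 note: spheroids exposed to agents for 7 days; percent viability relative to DMSO vehicle wells taken as 100%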
- protocol-conditions: second compound 0.0316 µM; first compound 0.3 µM; active compounds read low
- Source text: Multicellular complex tumor spheroid response to apoptosis pathway targeting inhibitors Alrizomadlin, Pelcitoclax, and Dasminapant in combination with a variety of drugs and investigational agents in selected tumor cell lines […] Compounds. […] If the clinical Cmax for an agent had not been determined, the highest concentration tested was 10 microM. […]
measured-parameter: viability, T/C

Query: Provide only the value of recorded viability, T/C for NC(=O)C(=Cn1cnc(-c2cc(C(F)(F)F)cc(C(F)(F)F)c2)n1)c1cncnc1 + CNC(C)C(=O)NC1CN(S(=O)(=O)c2cccc(S(=O)(=O)N3CCC4CCC(C(=O)NC(c5ccccc5)c5ccccc5)N4C(=O)C(NC(=O)C(C)NC)C3)c2)CCC2CCC(C(=O)NC(c3ccccc3)c3ccccc3)N2C1=O
Response: 78.3%

Query: Provide only the value of recorded viability, T/C for Cc1nc(N2CCC3(CC2)COC(C)C3N)c(CO)nc1Sc1ccnc(N)c1Cl (stereo not drawn) + CNC(C)C(=O)NC1CN(S(=O)(=O)c2cccc(S(=O)(=O)N3CCC4CCC(C(=O)NC(c5ccccc5)c5ccccc5)N4C(=O)C(NC(=O)C(C)NC)C3)c2)CCC2CCC(C(=O)NC(c3ccccc3)c3ccccc3)N2C1=O
Response: 86.3%

Query: Provide only the value of recorded viability, T/C for CCN1C(C(=O)NC23CCC(C(=O)O)(CC2)CC3)C(c2cccc(Cl)c2F)C2(C(=O)Nc3cc(Cl)ccc32)C12CCCCC2 (stereo not drawn) + CNC(C)C(=O)NC1CN(S(=O)(=O)c2cccc(S(=O)(=O)N3CCC4CCC(C(=O)NC(c5ccccc5)c5ccccc5)N4C(=O)C(NC(=O)C(C)NC)C3)c2)CCC2CCC(C(=O)NC(c3ccccc3)c3ccccc3)N2C1=O
Response: 95.8%

---

- Tested on: PANC-1 complex spheroid growth, percent test/control
- assay-overview: Anticancer human tumor PANC-1 cell line growth inhibition [Asc];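 note: spheroids exposed to agents for 7 days; percent viability relative to DMSO vehicle wells taken as 100%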
- protocol-conditions: second compound 0.3 µM; first compound 1 µM; active compounds read low
Exercise: state measured viability, T/C for each of the molecules provided.
State the answer as a number, implicitly in %.

Query: Provide only the value of recorded viability, T/C for COc1c(OCCCN2CCOCC2)ccc2c3n(c(=NC(=O)c4cnc(N)nc4)nc12)CCN3 + CCN1C(C(=O)NC23CCC(C(=O)O)(CC2)CC3)C(c2cccc(Cl)c2F)C2(C(=O)Nc3cc(Cl)ccc32)C12CCCCC2
Response: 35.8

Query: Provide only the value of recorded viability, T/C for CNC(C)C(=O)NC1CN(S(=O)(=O)c2cccc(S(=O)(=O)N3CCC4CCC(C(=O)NC(c5ccccc5)c5ccccc5)N4C(=O)C(NC(=O)C(C)NC)C3)c2)CCC2CCC(C(=O)NC(c3ccccc3)c3ccccc3)N2C1=O (configuration not stated) + CCN1C(C(=O)NC23CCC(C(=O)O)(CC2)CC3)C(c2cccc(Cl)c2F)C2(C(=O)Nc3cc(Cl)ccc32)C12CCCCC2
Response: 90.6

---

Exercise: state measured viability, T/C for each of the compounds provided.
- System: PANC-1 complex spheroid growth, percent test/control
- assay-overview: Anticancer human tumor PANC-1 cell line growth inhibition [Asc];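 note: spheroids exposed to agents for 7 days; percent viability relative to DMSO vehicle wells taken as 100%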
- protocol-conditions: second compound 0.03 µM; first compound 0.1 µM; active compounds read low
State the answer as a number, implicitly in %.

Query: Provide only the value of recorded viability, T/C for C=CC(=O)N1CCN(c2nc(=O)n(-c3c(C)ccnc3C(C)C)c3nc(-c4c(O)cccc4F)c(F)cc23)C(C)C1 (stereo unspecified) + CCN1C(C(=O)NC23CCC(C(=O)O)(CC2)CC3)C(c2cccc(Cl)c2F)C2(C(=O)Nc3cc(Cl)ccc32)C12CCCCC2
Response: 92.5

Query: Provide only the value of recorded viability, T/C for COc1c(OCCCN2CCOCC2)ccc2c3n(c(=NC(=O)c4cnc(N)nc4)nc12)CCN3 + CCN1C(C(=O)NC23CCC(C(=O)O)(CC2)CC3)C(c2cccc(Cl)c2F)C2(C(=O)Nc3cc(Cl)ccc32)C12CCCCC2
Response: 76.7

Query: Provide only the value of recorded viability, T/C for Cn1ncnc1[C@H]1c2n[nH]c(=O)c3cc(F)cc(c23)N[C@@H]1c1ccc(F)cc1 + CCN1C(C(=O)NC23CCC(C(=O)O)(CC2)CC3)C(c2cccc(Cl)c2F)C2(C(=O)Nc3cc(Cl)ccc32)C12CCCCC2
Response: 101

Query: Provide only the value of recorded viability, T/C for C#Cc1c(F)ccc2cc(O)cc(-c3ncc4c(N5CC6CCC(C5)N6)nc(OCC56CCCN5CC(F)C6)nc4c3F)c12 (stereo unspecified) + CCN1C(C(=O)NC23CCC(C(=O)O)(CC2)CC3)C(c2cccc(Cl)c2F)C2(C(=O)Nc3cc(Cl)ccc32)C12CCCCC2
Response: 90.2

Query: Provide only the value of recorded viability, T/C for O=C(c1ccc(F)c(F)c1Nc1ccc(I)cc1F)N1CC(O)([C@@H]2CCCCN2)C1 + CCN1C(C(=O)NC23CCC(C(=O)O)(CC2)CC3)C(c2cccc(Cl)c2F)C2(C(=O)Nc3cc(Cl)ccc32)C12CCCCC2
Response: 87.3

Query: Provide only the value of recorded viability, T/C for C=C(F)C(=O)N1CCN(c2nc(OCC3CCCN3C)nc3c2CCN(c2cccc4cccc(Cl)c24)C3)CC1CC#N (stereo unspecified) + CCN1C(C(=O)NC23CCC(C(=O)O)(CC2)CC3)C(c2cccc(Cl)c2F)C2(C(=O)Nc3cc(Cl)ccc32)C12CCCCC2
Response: 96.7

---

Exercise: state measured viability, T/C for each of the molecules provided.
- Test system: PANC-1 complex spheroid growth, percent test/control
- assay-overview: Anticancer human tumor PANC-1 cell line growth inhibition [Asc];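 note: spheroids exposed to agents for 7 days; percent viability relative to DMSO vehicle wells taken as 100%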
- protocol-conditions: second compound 0.0316 µM; first compound 0.316 µM; active compounds read low

Query: Provide only the value of recorded viability, T/C for CNC(C)C(=O)NC1CN(S(=O)(=O)c2cccc(S(=O)(=O)N3CCC4CCC(C(=O)NC(c5ccccc5)c5ccccc5)N4C(=O)C(NC(=O)C(C)NC)C3)c2)CCC2CCC(C(=O)NC(c3ccccc3)c3ccccc3)N2C1=O (stereo not drawn) + Cc1c(S(C)(=O)=O)c(-c2cc(F)cc(N3CCN(c4ccc(NS(=O)(=O)c5ccc(NC(CCN6CCC(C(=O)OCCCP(=O)(O)O)CC6)CSc6ccccc6)c(S(=O)(=O)C(F)(F)F)c5)cc4)CC3)c2)c(-c2ccc(Cl)cc2)n1C(C)C
Response: 98.6%

Query: Provide only the value of recorded viability, T/C for COc1c(OCCCN2CCOCC2)ccc2c3n(c(=NC(=O)c4cnc(N)nc4)nc12)CCN3 + CNC(C)C(=O)NC1CN(S(=O)(=O)c2cccc(S(=O)(=O)N3CCC4CCC(C(=O)NC(c5ccccc5)c5ccccc5)N4C(=O)C(NC(=O)C(C)NC)C3)c2)CCC2CCC(C(=O)NC(c3ccccc3)c3ccccc3)N2C1=O
Response: 41.3%

Query: Provide only the value of recorded viability, T/C for O=C(c1ccc(F)c(F)c1Nc1ccc(I)cc1F)N1CC(O)([C@@H]2CCCCN2)C1 + CNC(C)C(=O)NC1CN(S(=O)(=O)c2cccc(S(=O)(=O)N3CCC4CCC(C(=O)NC(c5ccccc5)c5ccccc5)N4C(=O)C(NC(=O)C(C)NC)C3)c2)CCC2CCC(C(=O)NC(c3ccccc3)c3ccccc3)N2C1=O
Response: 86.6%
